- system tested: Cathepsin D (CatD) (Homo sapiens (Human))
- Sequence (P07339 65-412, species assumed): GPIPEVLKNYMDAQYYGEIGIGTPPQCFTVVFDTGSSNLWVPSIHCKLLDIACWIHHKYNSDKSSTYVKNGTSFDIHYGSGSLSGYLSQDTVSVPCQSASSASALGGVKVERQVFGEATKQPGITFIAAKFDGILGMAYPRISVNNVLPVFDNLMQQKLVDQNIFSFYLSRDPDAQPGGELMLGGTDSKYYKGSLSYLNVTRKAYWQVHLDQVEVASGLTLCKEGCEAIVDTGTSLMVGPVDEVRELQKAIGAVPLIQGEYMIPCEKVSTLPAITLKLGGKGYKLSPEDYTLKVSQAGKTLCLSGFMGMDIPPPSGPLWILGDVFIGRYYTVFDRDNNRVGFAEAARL
- test protocol: CatD assay
- Type: biochemical
- conditions: read-out: IC50 IP (μM) CatD
The following compounds are listed with their measured IC50 values.
Numbers only; they are read as µM.

Please review the entries below; each comes with its answer.
COC[C@]12C[C@H]1[C@@](C)(c1cc(/C=C(\F)c3cnc(OCCF)cn3)ccc1F)N=C(N)S2 | 329
CNC(=O)[C@]12C[C@H]1[C@@](C)(c1cc(/C=C(\F)c3ccc(Cl)cn3)ccc1F)N=C(N)S2 | 204
C#CCOc1cnc(/C(F)=C/c2cnc(F)c([C@@]3(C)N=C(N)S[C@@]4(C(=O)N5CCOCC5)C[C@H]43)c2)cn1 | 177
C[C@]1(c2cc(/C=C(\F)c3ccc(Br)cn3)ccc2F)N=C(N)S[C@@]2(C(=O)N3CCOCC3)C[C@H]21 | 353
CNC(=O)[C@]12C[C@H]1[C@@](C)(c1cc(/C=C(\F)c3cnc(Br)cn3)ccc1F)N=C(N)S2 | 69.7
CNC(=O)[C@]12C[C@H]1[C@@](C)(c1cc(/C=C(\F)c3ccc(OC(F)(F)F)cn3)ccc1F)N=C(N)S2 | 256

## Input Entry `CC#CCOc1cnc(/C(F)=C/c2ccc(F)c([C@@]3(C)N=C(N)S[C@@]4(C(N)=O)C[C@H]43)c2)cn1` : reported IC50 = ?
## Output 165

## Input Entry `C[C@]1(c2cc(/C=C(\F)c3ccc(C#N)cn3)cnc2F)N=C(N)S[C@@]2(C(=O)N3CC[C@H](F)C3)C[C@H]21` : reported IC50 = ?
## Output 776

## Input Entry `CNC(=O)[C@]12C[C@H]1[C@@](C)(c1cc(/C=C(\F)c3cnc(C#CC4CC4)cn3)ccc1F)N=C(N)S2` : reported IC50 = ?
## Output 538

## Input Entry `CC#CCOc1cnc(/C(F)=C/c2ccc(F)c([C@@]3(C)N=C(N)S[C@@]4(C(C)=O)C[C@H]43)c2)cn1` : reported IC50 = ?
## Output 587

## Input Entry CC1COC([C@]23C[C@H]2[C@@](C)(c2cc(/C=C(\F)c4ccc(C#N)cn4)ccc2F)N=C(N)S3)=N1 (some centres unmarked) : reported IC50 = ?
## Output 400

## Input Entry C[C@]1(c2cc(/C=C(\F)c3ccc(C#N)cn3)ccc2F)N=C(N)S[C@@]2(C(=O)N3CCCC3c3ccccc3)C[C@H]21 (some centres unmarked) : reported IC50 = ?
## Output 2.4

## Input Entry `C[C@]1(c2cc(/C=C(\F)c3ccc(C#N)cn3)ccc2F)N=C(N)S[C@@]2(C(=O)N3CCN(CC4CC4)CC3)C[C@H]21` : reported IC50 = ?
## Output 400

## Input Entry `C[C@]1(c2cc(/C=C(\F)c3cnc(C#CC4CC4)cn3)ccc2F)N=C(N)S[C@@]2(C(=O)N3CCOCC3)C[C@H]21` : reported IC50 = ?
## Output 61
